- System: Escherichia coli expressing NDM-1 (CLB30005)
- Procedure Summary: Antibiotic potentiation activity: synergistic concentration (MITC95) with imipenem, growth by OD600
- Format: cell-based
- Run Conditions: 95% inhibition of bacterial growth, strain CLB30005
Returns satisfied if the recorded NDM1 EC30005 MITC95 is greater than or equal to 8 µM, and not satisfied otherwise.

Compound: CCC[C@H](C(=O)O)[C@H](Cc1ccc(C(N)=O)cc1)c1nn[nH]n1 [Example 45]
Group: not satisfied
//
Compound: CCC[C@H](C(=O)O)[C@H](Cc1ccc(C#N)cc1)c1nn[nH]n1 [Example 40]
Group: satisfied
//
Compound: CC(C)[C@H](C(=O)O)[C@H](Cc1ccc(C2=CCNCC2)cc1)c1nnn[nH]1 [Example 59]
Group: satisfied
//
Compound: CCCC[C@@H](C(=O)O)[C@@H](Cc1ccc(-c2ccc(S(N)(=O)=O)cc2)cc1)c1nn[nH]n1 [Example 184]
Group: satisfied
//
Compound: CCC[C@H](C(=O)O)[C@H](Cc1ccc(-c2ccncc2)cc1)c1nn[nH]n1 [Example 198]
Group: not satisfied
//
Compound: O=C(O)[C@@H](Cc1ccccc1)[C@H](Cc1ccccc1)c1nnn[nH]1 [Example 3]
Group: satisfied

====

- Study System: NDM-1 (Klebsiella pneumoniae, UniProt C7C422)
- Sequence (C7C422 29-270, looked up, species assumed): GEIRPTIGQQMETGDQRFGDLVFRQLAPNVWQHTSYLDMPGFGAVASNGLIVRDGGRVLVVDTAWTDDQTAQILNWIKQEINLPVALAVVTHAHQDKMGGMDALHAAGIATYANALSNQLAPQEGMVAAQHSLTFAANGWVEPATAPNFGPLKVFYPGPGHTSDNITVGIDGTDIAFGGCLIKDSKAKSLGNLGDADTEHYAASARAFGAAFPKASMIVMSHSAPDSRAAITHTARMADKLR
- Procedure Summary: Enzyme activity: determination of IC50, fluorescence assay with CCF2-FA substrate
- Type: biochemical
- Run Conditions: NDM-1 enzyme 1 pM, CCF2-FA 1.25 μM, 2 hours at 25° C.; read-out: NDM1 IC50
pIC50: −log10 of the molar value.

Compound: CCC[C@H](C(=O)O)[C@H](Cc1ccc2nonc2c1)c1nnn[nH]1
pIC50: 6.59
//
Compound: CCC[C@H](C(=O)O)[C@H](Cc1cccnc1)c1nnn[nH]1
pIC50: 6.43
//
Compound: CCC[C@H](C(=O)O)[C@H](Cc1cccc(N2CCCC(O)C2)c1)c1nn[nH]n1 (stereo partly shown)
pIC50: 7.33
//
Compound: CCC[C@H](C(=O)O)[C@H](Cc1cccc(-c2ccncc2)c1)c1nn[nH]n1
pIC50: 7.89
//
Compound: CCC[C@H](C(=O)O)[C@H](Cc1ccc(C(=O)NC2CC2)cc1)c1nnn[nH]1
pIC50: 6.11
//
Compound: CCC[C@H](C(=O)O)[C@H](Cc1cccc(-c2cccc(CN)c2)c1)c1nn[nH]n1
pIC50: 7.22
//
Compound: CCC[C@H](C(=O)O)[C@H](Cc1cccc(-c2cccc(OC3CCNCC3)n2)c1)c1nn[nH]n1
pIC50: 7.66
//
Compound: CCC[C@H](C(=O)O)[C@H](Cc1ccc(F)cc1)c1nnn[nH]1
pIC50: 6.96
//
Compound: CC(C)C[C@H](C(=O)O)[C@H](Cc1ccc(N2CC(O)(C(F)(F)F)C2)nc1)c1nnn[nH]1
pIC50: 6.96
//
Compound: CCC[C@H](C(=O)O)[C@H](Cc1ccc(C(=O)NCCN)cc1)c1nnn[nH]1
pIC50: 5.96
//
Compound: CCC[C@H](C(=O)[O-])[C@H](Cc1ccc(C2CC[N+](C)(C)CC2)cc1)c1nnn[nH]1
pIC50: 6.77
//
Compound: CC(C)(C)[C@H](C(=O)O)[C@H](Cc1ccccc1)c1nnn[nH]1
pIC50: 7.04
//
Compound: O=C(O)[C@@H](CCCC1CCNCC1)[C@H](Cc1ccc(C2=CCNC2)cc1)c1nnn[nH]1
pIC50: 7.06
//
Compound: CC(C)C[C@H](C(=O)O)[C@H](Cc1ccc(N2CCC(CN)CC2)nc1)c1nnn[nH]1
pIC50: 6.92
//
Compound: CC(C)C[C@H](C(=O)O)[C@H](Cc1ccc(C2=CCC(N)CC2)c(F)c1)c1nn[nH]n1 (stereo partly shown) [Example 455, 2,2,2-trifluoroacetate]
pIC50: 7.63
//
Compound: CCC[C@H](C(=O)O)[C@H](Cc1ccccc1C1=CCC(N)CC1)c1nn[nH]n1 (stereo partly shown) [Example 449, 2,2,2-trifluoroacetate]
pIC50: 7.14

====

- Study System: UniProt P52699
- Procedure Summary: Enzyme activity: determination of IC50, fluorescence assay with CCF2-FA substrate
- Assay type: biochemical
- Run Conditions: IMP-1 enzyme 2 pM, CCF2-FA 1.25 μM, 2 hours at 25° C.; read-out: IMP1 IC50
Below, each of the molecules is paired with its reported log10(IC50) value.
Measured Parameter: log10(IC50) (log10 of the value in µM)

Molecule: CCC[C@H](C(=O)O)[C@H](Cc1ccc(C2CCN(C=N)C2)cc1)c1nnn[nH]1 (stereo partly drawn) [Example 415]
Study System: UniProt P52699
log10(IC50): -0.41

Molecule: CC(C)C[C@H](C(=O)O)[C@H](Cc1ccc(C2=CCC(N)CC2)c(F)c1)c1nn[nH]n1 (stereo partly drawn) [Example 455, 2,2,2-trifluoroacetate]
Study System: UniProt P52699
log10(IC50): -1.62

Molecule: O=C(O)[C@@H](CC(F)(F)F)[C@H](Cc1ccc(NCCO)nc1)c1nnn[nH]1 [Example 436]
Study System: UniProt P52699
log10(IC50): 0.92

Molecule: CC(C)C[C@H](C(=O)O)[C@H](Cc1ccc(CCCN)c(F)c1)c1nn[nH]n1.O=C(O)C(F)(F)F [Example 440, 2,2,2-trifluoroacetate]
Study System: UniProt P52699
log10(IC50): -0.91

Molecule: CCC[C@H](C(=O)O)[C@H](Cc1ccccc1F)c1nnn[nH]1 [Example 259]
Study System: UniProt P52699
log10(IC50): -0.03

Molecule: CC(C)C[C@H](C(=O)O)[C@H](Cc1ccc(C2=CCNCC2)c(F)c1)c1nn[nH]n1 [Example 453, 2,2,2-trifluoroacetate]
Study System: UniProt P52699
log10(IC50): -1.00

Molecule: CCC[C@H](C(=O)O)[C@H](Cc1ccccc1C1=CCC(N)CC1)c1nn[nH]n1 (stereo partly drawn) [Example 449, 2,2,2-trifluoroacetate]
Study System: UniProt P52699
log10(IC50): 0.95

Molecule: CCC[C@H](C(=O)O)[C@H](Cc1cccc(-c2cncc(CN3CCCCC3)c2)c1)c1nn[nH]n1 [Example 347]
Study System: UniProt P52699
log10(IC50): 0.20

Molecule: CC(C)C[C@H](C(=O)O)[C@H](Cc1ccc(N2CC(N)C2)nc1)c1nnn[nH]1 [Example 327]
Study System: UniProt P52699
log10(IC50): 0.41

Molecule: CCC[C@H](C(=O)O)[C@H](Cc1ccc(CCCO)cc1)c1nn[nH]n1 [Example 254]
Study System: UniProt P52699
log10(IC50): -0.74

Molecule: CCC[C@H](C(=O)O)[C@H](Cc1cnc(N2CCOCC2)nc1)c1nnn[nH]1 [Example 287]
Study System: UniProt P52699
log10(IC50): 0.96

Molecule: CCC[C@H](C(=O)O)[C@H](Cc1cccc(N2CCOCC2)c1)c1nn[nH]n1 [Example 365]
Study System: UniProt P52699
log10(IC50): 0.18

Molecule: CCC[C@H](C(=O)O)C(Cc1cccc(C(F)(F)F)c1)c1nnn[nH]1 (stereo in doubt) [Example 267]
Study System: UniProt P52699
log10(IC50): -0.55

====

Below, each of the compounds is paired with its reported pIC50 value.
- Study System: UniProt C7C422
- Procedure Summary: Enzyme activity: determination of IC50, fluorescence assay with CCF2-FA substrate
- Assay type: biochemical
- Run Conditions: NDM-1 enzyme 1 pM, CCF2-FA 1.25 μM, 2 hours at 25° C.; read-out: NDM1 IC50
pIC50: −log10 of the molar value.

Compound: CC(C)C[C@H](C(=O)O)[C@H](Cc1ccc(COCC2CCNCC2)c(F)c1)c1nn[nH]n1.O=C(O)C(F)(F)F [Example 442, 2,2,2-trifluoroacetate]
pIC50: 7.13
--
Compound: CC(C)C[C@H](C(=O)O)[C@H](Cc1ccc(COCCN2CCNCC2)c(F)c1)c1nn[nH]n1.O=C(O)C(F)(F)F
pIC50: 6.95
--
Compound: CCC[C@H](C(=O)O)[C@H](C[C@@H](C)c1ccccc1)c1nnn[nH]1
pIC50: 6.89
--
Compound: CC(C)(C)[C@H](C(=O)O)[C@H](Cc1ccc(O)nc1)c1nnn[nH]1
pIC50: 6.80
--
Compound: CC(C)C[C@H](C(=O)O)[C@H](Cc1ccc(CN2CCC(N)CC2)c(F)c1)c1nn[nH]n1.O=C(O)C(F)(F)F [Example 444, 2,2,2-trifluoroacetate]
pIC50: 7.08

====

Below, each of the compounds is paired with its reported IC50 value.
- Study System: IMP-1 (Serratia marcescens, UniProt P52699)
- Sequence (P52699 19-246, looked up, species assumed): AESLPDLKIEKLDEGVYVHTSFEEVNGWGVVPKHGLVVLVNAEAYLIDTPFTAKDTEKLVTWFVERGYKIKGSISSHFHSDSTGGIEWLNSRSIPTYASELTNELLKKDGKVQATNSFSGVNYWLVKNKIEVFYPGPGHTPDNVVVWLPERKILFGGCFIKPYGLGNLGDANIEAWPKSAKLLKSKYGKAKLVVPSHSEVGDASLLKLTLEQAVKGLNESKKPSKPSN
- Procedure Summary: Enzyme activity: determination of IC50, fluorescence assay with CCF2-FA substrate
- Assay type: biochemical
- Run Conditions: enzyme 2 pM, CCF2-FA 1.25 μM, 2 hours at 25° C.; read-out: IMP1 IC50
Measured Parameter: IC50 (µM)

Compound: CC(C)C[C@H](C(=O)O)[C@H](Cc1ccc(-c2ccc(N)nc2)nc1)c1nn[nH]n1 [Example 176]
Inequality Operator: =
Measurement: 0.15
//
Compound: CCC[C@H](C(=O)O)[C@H](Cc1ccccc1Br)c1nnn[nH]1 [Example 26]
Inequality Operator: =
Measurement: 0.57
//
Compound: CCC[C@H](C(=O)O)[C@H](Cc1ccc(-c2ccc3nncn3c2)cc1)c1nnn[nH]1 [Example 239]
Inequality Operator: =
Measurement: 0.19
//
Compound: CCC[C@H](C(=O)O)[C@H](Cc1ccc(Cl)nc1)c1nnn[nH]1 [Example 82]
Inequality Operator: =
Measurement: 4.6
//
Compound: CC(C)[C@H](C(=O)O)[C@H](Cc1ccc(NC(CO)CO)nc1)c1nnn[nH]1 [Example 141]
Inequality Operator: >
Measurement: 20
